Experiment: Plasma cocaine levels after IV infusion (liquid chromatography with photodiode array detection)
Assay type: in vivo
Conditions: human, plasma, iv, 0.6 mg/kg, 0.6 mg/kg IV, n=7, range over subjects, read-out: Peak plasma cocaine levels (Cmax), range

{"compound": "COC(=O)[C@H]1[C@@H](OC(=O)c2ccccc2)C[C@@H]2CC[C@H]1N2C [cocaine]", "Cmax": "197 to 893 ng/mL"}
